The reported measurements were obtained from patent US11753407B2.

# System: SMN2 minigene mRNA (SMN2-A minigene) in HEK293H cells
# TEST_PROTOCOL: SMN2 minigene mRNA splicing RT-qPCR assay in cultured cells
# Type: cell-based, human
# ASSAY_CONTEXT: Homo sapiens, HEK293-H; concentration increasing full length SMN2 mRNA 1.5-fold relative to vehicle-treated cells; HEK293H cells with SMN2-A minigene, 24 hours, 7-point concentration data; read-out: EC1.5x for production of full length SMN2 mRNA
Reported EC (1.5-fold increase) is given for each of the following compounds.

| COMPOUND | EC (1.5-fold increase) |
| --- | --- |
| CCN(CC)C1CCN(c2ccc3nc(-c4ccc5nc(C)cn5c4)cc(=O)n3c2)CC1 [Compound 445] | < 0.1 µM |
| COc1ccc(-c2ccc3nc(N4CCC(N)CC4)cc(=O)n3c2)cc1F [Cpd 276] | 0.3 to 1 µM |
| Cc1cn2nc(-c3cc(=O)n4cc(N5CCN(CCO)[C@H](C)C5)ccc4n3)cc2c(C)n1 [Compound 532] | < 0.1 µM |
| Cc1nc2ccc(-c3cc(=O)n4cc(N5CCNC(C)(C)C5)ccc4n3)cc2o1 [Compound 194] | < 0.1 µM |
| Cc1cn2cc(-c3cc(=O)n4cc(C5CCN(C)CC5)ccc4n3)ccc2n1 [Compound 448] | < 0.1 µM |
| CCCc1nc(C)cn2nc(-c3cc(=O)n4cc(N5CCN(CCO)CC5)ccc4n3)cc12 [Compound 726] | 0.3 to 1 µM |
| Cc1cn2nc(-c3cc(=O)n4cc(N5C[C@H]6CNC[C@H]6C5)ccc4n3)cc2c(C)n1 [Compound 746] | < 0.1 µM |
| CCc1nc(C)cn2nc(-c3cc(=O)n4cc(C5CCNCC5)ccc4n3)cc12 [Compound 656] | < 0.1 µM |
| Cc1cn2cc(-c3ccc4nc(C5CCN(C(C)C)CC5)cc(=O)n4c3)ccc2n1 [Compound 461] | 0.3 to 1 µM |
| Cc1nc2ccc(-c3cc(=O)n4cc(C5CCN(C)CC5)ccc4n3)cc2s1 [Compound 439] | 0.1 to 0.3 µM |
| CCc1nc(C)cn2nc(-c3cc(=O)n4cc(N5CCN(C)[C@H](C)C5)ccc4n3)cc12 [Cpd 629] | < 0.1 µM |
| C[C@H]1CN(c2ccc3nc(-c4cc(F)cc(Cl)c4)cc(=O)n3c2)CCN1 [Compound 189] | 0.3 to 1 µM |
| O=c1cc(-c2ccc(OC(F)F)cc2)nc2ccc(N3CCNCC3)cn12 [Compound 59] | 1 to 3 µM |
| Cc1cn2cc(-c3cc(=O)n4cc(N5CCNCC5)ccc4n3)cc(C)c2n1 [Compound 141] | < 0.1 µM |
| COc1ccc(-c2cc(=O)n3nc(C4=CCNCC4)ccc3n2)cc1OC [Cpd 398] | 0.3 to 1 µM |
| C[C@H]1CN(c2ccc3nc(-c4cc(F)cc(F)c4)cc(=O)n3c2)CCN1 [Compound 105] | 0.1 to 0.3 µM |
| Cc1cn2cc(-c3cc(=O)n4cc(N5CCN6CCC[C@H]6C5)ccc4n3)cc(C)c2n1 [Compound 820] | < 0.1 µM |
